Assay: probe aWnt5a binding to arrayed compounds – biochemical, biotinylated probe, 635/667 nm fluorescence, primary screen (AID 1113);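 further: score merges 667 nm fluorescence intensity with signal-to-noise per printed feature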
Settings: small-molecule microarray, higher = more signal
Would you mind telling me the reported composite z-score of each entry?
One number for each entry.

O=C(O)[C@@]1(CCS(=O)(=O)c2ccccc2)N=C(c2ccc(OCCCO)cc2)O[C@H]1c1ccccc1 = -0.0084
CC(C)C(=C=CC[C@H](O)c1ccc(CO)o1)CCO = -0.15
CCOC(=O)C1=CCC(c2ccc(F)cc2)N(S(=O)(=O)c2ccc(C)cc2)C1 (stereo not given) = -0.184
CN1C(=O)C2C=CC(C(O)c3c(F)cccc3Cl)N(NC(=O)OC(C)(C)C)C2C1=O (stereo not given) = 0.0718
COCCOC(=O)N1C(=O)[C@@]2(c3cc(C#CC4(O)CCCCCC4)ccc31)[C@H](C(=O)Nc1nc3ccccc3s1)[C@H]1C(=O)O[C@H](c3ccccc3)[C@H](c3ccccc3)N1[C@@H]2c1ccc(OCCO)cc1 = -0.169
CC(C)NC(=O)[C@@H]1c2ccccc2C(=O)N(C(C)C)[C@H]1c1ccc(CO)cc1 = -0.228

Report composite z-score for each item below.
1. CCOC(=O)C1=C[C@@H](C(C)C)N(S(=O)(=O)c2ccc(C)cc2)[C@H]1c1ccccc1F
2. COc1cc(CO)cc(I)c1O[C@H]1C=C(C(=O)NCCO)C[C@@H](NC[C@@H]2CCCO2)[C@@H]1O
3. COC(=O)[C@]1(CCC(=O)OC(C)(C)C)N=C(c2ccc(OCCCO)cc2)O[C@@H]1c1ccccc1
4. C[C@H]1C2[C@H](Cc3ccccc3)NC(=O)[C@]23C(=O)NCC(=O)N2CCC[C@H]2C(=O)NC/C=C/CCC/C=C/C3[C@@H]2O[C@]12C (stereo not given in full)

Result ::
[-0.001, -0.096, -0.0405, -0.0075]

###

Would you kindly list composite z-score for each of these molecules?
Target: Calmodulin-1 (Homo sapiens)
Assay: small molecules binding calmodulin-1 with EGTA – biochemical, small-molecule microarray, Cy5-labelled CALM1, profiling panel (AID 1111);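 further: labelled calmodulin applied in Tris saline Tween buffer holding calcium plus EGTA and DTT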
Settings: Cy5-CALM1 binding fluorescence, higher = more signal

Reference set, count: 4
COc1ccccc1CN1C(=O)c2ccccc2[C@@H](C(=O)NCc2ccccc2)[C@@H]1c1ccc(CO)cc1 = -0.473
O=C(O)[C@@]1(CCS(=O)(=O)c2ccccc2)N=C(c2ccc(OCCCO)cc2)O[C@H]1c1ccccc1 = 2.47
C=C(C)[C@@H]1CC=C(C(O)C2C=CC3C(=O)NC(=O)C3N2Nc2ccc(Cl)cc2Cl)CC1 (stereo partly drawn) = 2.19
COC(=O)c1c(CC[C@@H](CO)NC(=O)N[C@@H](Cc2ccccc2)Cn2cc(-c3ccccn3)nn2)oc(C(=O)N2CCOCC2)c1C(=O)OC = -0.194

Give one value of composite z-score per listed molecule.
1. O=C1C2C=CC(C(O)c3cc(C(F)(F)F)cc(C(F)(F)F)c3)N(Nc3ccccc3)C2C(=O)N1c1ccccc1 (stereo not drawn)
2. COCCOC(=O)N1C(=O)[C@@]2(c3ccccc31)[C@H](C(N)=O)[C@H]1C(=O)O[C@H](c3ccccc3)[C@H](c3ccccc3)N1[C@@H]2c1ccc(O)cc1
3. C=CCC(OC(C)=O)[C@@H]1[C@@H](N(Cc2ccc(-c3ccccc3)cc2)C(=O)Cc2ccc(F)cc2)c2cc(OCCCO)ccc2N1C(=O)c1ccc2ccccc2c1 (stereo partly drawn)
4. CCCC=C(CCC)[C@@H](NC(=O)OCC(C)C)c1ccccc1

Result ::
[0.925, 0.0186, -0.0052, 1.65]

###

Molecular target: NADPH oxidase 5 (Homo sapiens)
Assay: compounds shifting NOX5 Amplex Red fluorescence – cell-based, HEK293-NOX5, NOX inhibitor project, primary screen (AID 1161)
Conditions: HEK293-NOX5, ionomycin, 45 min, higher = more signal
What z-score was measured for each of the following?
One number for each entry.

Below: 5 compounds and their reported z-score.
CC[C@@H]1C=C(C(=O)O)[C@H](c2ccc(C)cc2)N1S(=O)(=O)c1ccc(C)cc1 = -1.24
COc1ccc(CCNC(=O)[C@@]2(c3ccc([N+](=O)[O-])cc3)CC(=O)N(CC34CC5CC(CC(C5)C3)C4)[C@@H]2c2ccc(CO)cc2I)cc1 = -3.66
COC(=O)[C@H](Cc1ccccc1)N[C@H](/C=C/C1CC1)[C@@H](O)Cc1ccccc1 = -2.49
COC(=O)[C@@]1(Cc2ccccc2)[C@H]2c3cc(C(=O)N(C)C)n(CCc4c[nH]c5ccc(O)cc45)c3C[C@H]2CN1C(=O)c1ccccc1 = -2.41
CN1C(=O)C2C=CC(C(O)c3ccc(F)cc3)N(N(c3ccccc3)c3ccccc3)C2C1=O (stereo unspecified) = -1.39

Quick request: z-score for each listed item, please.
1. COc1ccc([C@H]2C[C@H]3C(Br)=C[C@@]2(CO)C(=O)[C@]32CO2)cc1
2. CCOC(=O)C1=CCC(c2ccc(F)cc2)N(S(=O)(=O)c2ccc(C)cc2)C1 (stereo unspecified)
3. COc1ccc(C(O)C2C=CC3C(=O)N(C)C(=O)C3N2NC(=O)OC(C)(C)C)c2ccccc12 (stereo unspecified)

Result ::
1: -0.268; 2: 0.315; 3: 0.384

Provide each entry's z-score from the list below.
1. C[N+](C)(C)CCCCCCNC(=O)[C@H]1C[C@H]2C(=O)N[C@@H](Cc3ccccc3)C(=O)N2[C@H]1c1cccc(OCCO)c1
2. CC1CC/C=C\[C@H]2OC34C=CCN(Cn5nnc6ccccc65)C(=O)[C@H]3N(CCCCCO)C(=O)[C@@H]4C2C(=O)O1 (stereo partly specified)
3. COCCCNC(=O)[C@@H]1c2ccccc2C(=O)N(Cc2ccccc2)[C@H]1c1ccc(CO)cc1
4. COC(=O)[C@@]1(Cc2ccc(OC)cc2)[C@H]2c3cc(C(=O)N4CCCC4)n(CCCNc4ncc(C(F)(F)F)cc4Cl)c3C[C@H]2CN1C(=O)c1ccccc1
5. COCC(=C=CC[C@H](O)c1cccc(OCCO)c1)C[C@H](O)c1cc(Cl)cc(Cl)c1O

Result ::
1. 1.13
2. 1.68
3. -2.19
4. 1.65
5. -1.25

###

Target: E3 ubiquitin-protein ligase XIAP (Homo sapiens) (UniProt P98170)
Sequence (P98170 whole entry, looked up): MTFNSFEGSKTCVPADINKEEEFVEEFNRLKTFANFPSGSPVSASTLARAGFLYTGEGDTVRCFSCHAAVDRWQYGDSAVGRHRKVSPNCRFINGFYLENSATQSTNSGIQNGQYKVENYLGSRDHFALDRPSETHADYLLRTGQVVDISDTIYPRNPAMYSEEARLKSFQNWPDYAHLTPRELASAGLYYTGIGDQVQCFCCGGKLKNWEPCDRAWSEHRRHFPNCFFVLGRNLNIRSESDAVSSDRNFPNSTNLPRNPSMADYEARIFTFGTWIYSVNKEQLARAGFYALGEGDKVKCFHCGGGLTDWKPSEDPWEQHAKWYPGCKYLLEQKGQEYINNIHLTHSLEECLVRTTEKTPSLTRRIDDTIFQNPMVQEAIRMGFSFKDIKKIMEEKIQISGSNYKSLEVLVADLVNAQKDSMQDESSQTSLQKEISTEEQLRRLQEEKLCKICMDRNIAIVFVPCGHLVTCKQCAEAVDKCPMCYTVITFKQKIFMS
Assay: small molecules binding XIAP protein – biophysical, small-molecule microarray, fluorescence 635 nm, primary screen (AID 1181);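 further: score merges 667 nm emission and signal to noise over triplicate slides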
Settings: higher = more signal
# binarize composite z-score: threshold -0.1 inclusive, high side met, low side not met

Query :: Entry "CN(C)CCCC[C@@H]1NC(=O)[C@H]2C[C@@H](C(=O)NCCCCCN)[C@@H](c3cccc(OCCO)c3)N2C1=O" : is its composite z-score no less than -0.1?
Result :: met

Query :: Check if composite z-score >= -0.1 (inclusive). Item: "O=C1O[C@H](c2ccccc2)[C@H](c2ccccc2)N2[C@H]1[C@@H](C(=O)NC[C@H](O)c1ccccc1)[C@]1(C(=O)Nc3ccc(C#CC4=CCCCC4)cc31)[C@H]2c1ccccc1OCCO"
Result :: not met

Query :: Kindly determine if composite z-score recorded for "O=C(CS)NCCCCCNC(=O)[C@H]1C[C@H]2C(=O)NCC(=O)N2[C@H]1c1cccc(OCCO)c1" is above or exactly -0.1.
Result :: met

Query :: Check this molecule for composite z-score at or above -0.1: "COC(=O)[C@H](Cc1ccccc1)N[C@H](/C=C/C1CC1)[C@@H](O)Cc1ccccc1"
Result :: not met

Query :: Hi team, for "C=C(CCCC)C(=O)CC[C@H](OC(=O)c1cccnc1)c1ccc(OCCO)cc1" , is the recorded composite z-score at or above -0.1?
Result :: met

###

System: XIP peptide (Xip251-270)
Test: compounds binding XIP fragment 251-270 – biochemical, small-molecule microarray, fluorescence 635/667 nm, 0.5 µg/mL protein, primary screen (AID 1183)
Details: fluorescence 635 nm, higher = more signal
Can you tell me composite z-score for the items I'm about to list?

C#CCN1[C@H](/C=C/C2CC2)[C@H](Cc2ccccc2)OC(=O)[C@@H]1Cc1ccccc1 = 0.513
OCCCC1=CC(C2CC2)N(Cc2cccc(OC(F)(F)F)c2)CC1 (stereo not given) = 0.492
O=C1NC(=O)C2C1C=CC(C(O)C1CC=CCC1)N2Nc1ccccn1 (stereo not given) = 0.362
C#CCNCc1ccccc1 = 0.118
O=C1OCCC=C[C@H]2OC34C=CCN(CCN5CCOCC5)C(=O)[C@H]3N(CCCCCO)C(=O)[C@@H]4C12 (stereo not given in full) = 0.348

I would be grateful if you could provide composite z-score for each of the following entries.
1. NC(=O)N1C(=O)C2C(C1=O)C1C=C(CCCO)C2C(C2CC2)N1Cc1cc2c(cc1Br)OCO2 (stereo not given)
2. CCCC=C(CCC)[C@@H](NC(=O)OCC(C)C)c1ccccc1
3. CCCC[C@H]1C[C@@H]1[C@@H]1N(P(=O)(c2ccccc2)c2ccccc2)C[C@@](O)(c2ccccc2)CC12CC2
4. O=C1C2C=CC(C(O)c3ccc4c(c3)OCO4)N(Nc3ccc([N+](=O)[O-])cc3)C2C(=O)N1c1ccccc1 (stereo not given)
5. COCCOC(=O)N1C(=O)[C@@]2(c3cc(C#CC4(O)CCCCCC4)ccc31)[C@H](c1ccccc1OCCO)N1[C@H](c3ccccc3)[C@H](c3ccccc3)OC(=O)[C@H]1[C@@H]2C(=O)N1CCc2cc(OC)c(OC)cc2C1
6. COC(=O)[C@@]1(Cc2ccc(F)cc2)[C@H]2c3cc(C(=O)N(C)C)n(Cc4ccc(C)o4)c3C[C@H]2CN1C(=O)c1ccccc1
7. COCCCNC(=O)[C@@H]1c2ccccc2C(=O)N(Cc2ccccc2)[C@H]1c1ccc(CO)cc1

Result ::
[-0.102, 0.45, -0.0749, 0.473, 0.741, 0.665, 0.401]

Please go through the list and note composite z-score for each compound.
1. C=CCN1C(=O)[C@]2(O[C@H](CCO)[C@@H]([Si](C)(C)c3ccc(OC)cc3)[C@@H]2C)c2cc(N(C=O)c3ccccc3)ccc21
2. CCOc1ccc(N2C(=O)CSC2c2cccc([N+](=O)[O-])c2)cc1 (stereo not given)

Result ::
1: 0.749; 2: 0.193

Noted composite z-score for "CC(C)[Si](C#CCCCC#N)(Oc1ccccc1Br)C(C)C" , tested on XIP peptide (Xip251-270): -0.0206
